Provide the reported EC50 of each item.
tested on: Plasmodium falciparum; assay: Antimalarial activity against Plasmodium falciparum Dd2 infected in human erythrocytes after 48 hrs by SYBR green assay; format: functional; details: Dd2, 48 h
Form entry: value (nM) — number only.

Which EC50 is listed for "CC(C)C[C@H](NC(=O)[C@H](CC(C)C)NC(=O)N1CCCCC1)C(=O)N[C@H](C(=O)N1CCN=C1COc1ccc(F)cc1)c1ccccc1" ?
1900

Find the recorded EC50 belonging to "CC(C)C[C@H](NC(=O)[C@H](CC(C)C)NC(=O)N1CCOCC1)C(=O)N[C@H](C(=O)N1CCC[C@H]1COc1ccc(F)cc1)c1ccccc1" and report it.
7500

Field request: EC50 | item: "CC(C)C[C@H](NC(=O)[C@H](CC(C)C)NC(=O)N1CCCCC1)C(=O)N[C@@H](Cc1c[nH]c2ccccc12)C(=O)N1CCN=C1COc1ccc(F)cc1"
1700

###

target: Falcipain 2 (Plasmodium falciparum); assay: Inhibition of Plasmodium falciparum recombinant falcipain-2 using ZFR-AMC as substrate after 30 mins by fluorometric assay
Sequence (Q9N6S8 whole entry): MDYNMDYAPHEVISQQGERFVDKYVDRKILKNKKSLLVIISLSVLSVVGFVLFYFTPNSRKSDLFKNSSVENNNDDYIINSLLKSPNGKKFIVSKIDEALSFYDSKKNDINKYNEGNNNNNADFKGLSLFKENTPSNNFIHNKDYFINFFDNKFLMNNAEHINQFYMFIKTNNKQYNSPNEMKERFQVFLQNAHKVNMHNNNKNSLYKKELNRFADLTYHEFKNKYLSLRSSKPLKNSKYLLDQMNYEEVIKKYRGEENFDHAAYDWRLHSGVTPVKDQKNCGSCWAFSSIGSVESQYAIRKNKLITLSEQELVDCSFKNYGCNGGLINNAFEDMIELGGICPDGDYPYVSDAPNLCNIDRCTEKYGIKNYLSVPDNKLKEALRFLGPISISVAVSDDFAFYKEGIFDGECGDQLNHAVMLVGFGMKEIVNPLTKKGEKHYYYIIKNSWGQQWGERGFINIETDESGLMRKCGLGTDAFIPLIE
Note to self: class labels come from recorded Ki, ranges listed here: LOW (below 0.8 µM), MID (0.8 µM to below 7 µM), HIGH (7 µM or more)

Input "CC(C)C[C@H](NC(=O)[C@H](CC(C)C)NC(=O)N1CCCCC1)C(=O)N[C@H](C(=O)N1CCC[C@H]1COc1ccc(F)cc1)c1ccccc1" ; output its category
MID

Each molecule maps to one class by Ki. Which class for "CC(C)C[C@H](NC(=O)[C@H](CC(C)C)NC(=O)N1CCOCC1)C(=O)N[C@@H](Cc1c[nH]c2ccccc12)C(=O)N1CCC[C@H]1COc1ccc(F)cc1" ?
LOW

Lab log: "CC(C)C[C@H](NC(=O)CN1CCC(CCO)CC1)C(=O)N[C@@H](CC(C)C)C(=O)N[C@H](C(=O)N1CCC[C@H]1COc1ccc(F)cc1)c1ccccc1" — assign Ki category
HIGH

GET /class?item= "CC(C)C[C@H](NC(=O)CN1CCC(O)CC1)C(=O)N[C@@H](CC(C)C)C(=O)N[C@@H](Cc1c[nH]c2ccccc12)C(=O)N1CCN=C1COc1ccc(F)cc1"
HIGH

State the class of the molecule shown: "COC(=O)C1CCN(CC(=O)N[C@@H](CC(C)C)C(=O)N[C@@H](CC(C)C)C(=O)N[C@@H](Cc2c[nH]c3ccccc23)C(=O)N2CCC[C@H]2COc2ccc(F)cc2)CC1"
MID

Which category fits this record: "CC(C)C[C@H](NC(=O)[C@H](CC(C)C)NC(=O)N1CCOCC1)C(=O)N[C@@H](Cc1ccccc1)C(=O)N1CCC[C@H]1COc1ccc(F)cc1"
LOW

Kindly identify the class of "CC(C)C[C@H](NC(=O)CN1CCN(C)CC1)C(=O)N[C@@H](CC(C)C)C(=O)N[C@@H](Cc1c[nH]c2ccccc12)C(=O)N1CCC[C@H]1COc1ccc(F)cc1" .
HIGH

Which class is correct for the following molecule? "CC(C)C[C@H](NC(=O)N1CCOCC1)c1nc(C(=O)N[C@@H](Cc2ccccc2)C(=O)N2CCC[C@H]2COc2ccc(F)cc2)co1"
HIGH

Assign a category based on measured Ki for "CC(C)C[C@H](NC(=O)[C@H](CC(C)C)NC(=O)N1CCCCC1)C(=O)N[C@@H](Cc1c[nH]c2ccccc12)C(=O)N1CCC[C@H]1COc1ccc(F)cc1" and give only the class name.
LOW

// provenance: ChEMBL document CHEMBL3407376
